assay procedure: Solubility of dihydromyricetin nanocrystals and API (solubility in cold water)
Type: physicochemical
condition notes: cold water, water; no stabilizer (/)
measured property: solubility

If you can, please state the reported solubility value of O=C1c2c(O)cc(O)cc2O[C@H](c2cc(O)c(O)c(O)c2)[C@H]1O [Dihydromyricetin API, Dihydromyricetin] .
40 µg/mL

###

assay procedure: Solubility of dihydromyricetin nanocrystals and API (solubility in cold water)
Type: physicochemical
condition notes: cold water, aqueous with cosolvent or surfactant or cyclodextrin; stabilizer sodium dodecyl sulfate (SDS)
measured property: solubility (µg/mL)
Quick reminder: number only, in µg/mL, skip the unit.

Please report the recorded solubility for O=C1c2c(O)cc(O)cc2O[C@H](c2cc(O)c(O)c(O)c2)[C@H]1O [Dihydromyricetin API, Dihydromyricetin] .
300
